details: in propylene glycol, 313.15 K
Below is a list of entries, each paired with its recorded solubility (mole fraction) value.
Format: numeric value only, no unit, no commentary.

[
  {
    "molecule": "CC1(N=C(O)c2ccccc2)CCC2CC1C(c1ccccc1)=[NH+]C2(C)C.[O-][Cl+3]([O-])([O-])[O-] (configuration not stated)",
    "solubility (mole fraction)": 0.0164
  }
]

Kindly review the next molecule as well.
For record CC(=O)NC1(C)CCC2CC1C(C)=NC2(C)C (configuration not stated) the listed solubility (mole fraction) is 0.0232

###

conditions: in isopropanol, 313.15 K
resultType: solubility (mole fraction)
Format: numeric value only, no unit, no commentary.

[
  {
    "molecule": "CC(=O)NC1(C)CCC2CC1C(C)=NC2(C)C (configuration not stated)",
    "resultType": "solubility (mole fraction)",
    "reportedResult": 0.00214
  }
]

Kindly review the next molecule as well.
For record CC1(N=C(O)c2ccccc2)CCC2CC1C(c1ccccc1)=[NH+]C2(C)C.[O-][Cl+3]([O-])([O-])[O-] (configuration not stated) the listed solubility (mole fraction) is 0.00163

###

settings: in ethanol, 303.15 K
resultType: solubility (mole fraction)
Format: numeric value only, no unit, no commentary.

[
  {
    "compound": "CC(=O)NC1(C)CCC2CC1C(C)=NC2(C)C (configuration not stated)",
    "solubility (mole fraction)": 0.00184
  }
]

Kindly review the next compound as well.
For record CC1(N=C(O)c2ccccc2)CCC2CC1C(c1ccccc1)=[NH+]C2(C)C.[O-][Cl+3]([O-])([O-])[O-] (configuration not stated) the listed solubility (mole fraction) is 0.00182

###

Below is a list of entries, each paired with its recorded solubility (mole fraction) value.
conditions: in propionitrile, 298.15 K
Format: numeric value only, no unit, no commentary.

[
  {
    "compound": "CC(=O)NC1(C)CCC2CC1C(C)=NC2(C)C (configuration not stated)",
    "resultType": "solubility (mole fraction)",
    "reportedResult": 0.00392
  }
]

Kindly review the next compound as well.
For record CC1(N=C(O)c2ccccc2)CCC2CC1C(c1ccccc1)=[NH+]C2(C)C.[O-][Cl+3]([O-])([O-])[O-] (configuration not stated) the listed solubility (mole fraction) is 0.00186

###

conditions: in propionitrile, 313.15 K
Below is a list of entries, each paired with its recorded solubility (mole fraction) value.
Format: numeric value only, no unit, no commentary.

[
  {
    "compound": "CC(=O)NC1(C)CCC2CC1C(C)=NC2(C)C (configuration not stated)",
    "reportedResult": 0.00477
  }
]

Kindly review the next compound as well.
For record CC1(N=C(O)c2ccccc2)CCC2CC1C(c1ccccc1)=[NH+]C2(C)C.[O-][Cl+3]([O-])([O-])[O-] (configuration not stated) the listed solubility (mole fraction) is 0.00305

###

settings: in acetonitrile, 318.15 K
Below is a list of entries, each paired with its recorded solubility (mole fraction) value.

[
  {
    "molecule": "CC1(N=C(O)c2ccccc2)CCC2CC1C(c1ccccc1)=[NH+]C2(C)C.[O-][Cl+3]([O-])([O-])[O-] (configuration not stated)",
    "reportedResult": 0.00572
  }
]

Kindly review the next molecule as well.
For record CC(=O)NC1(C)CCC2CC1C(C)=NC2(C)C (configuration not stated) the listed solubility (mole fraction) is 0.0305
